biological target: UniProtKB Q9NZQ7; assay: Saturation binding assay on PD-L1+ cells; conditions: PD-L1+ cell, one-site model, read-out: dissociation constant (Kd)
Sequence (Q9NZQ7 19-290): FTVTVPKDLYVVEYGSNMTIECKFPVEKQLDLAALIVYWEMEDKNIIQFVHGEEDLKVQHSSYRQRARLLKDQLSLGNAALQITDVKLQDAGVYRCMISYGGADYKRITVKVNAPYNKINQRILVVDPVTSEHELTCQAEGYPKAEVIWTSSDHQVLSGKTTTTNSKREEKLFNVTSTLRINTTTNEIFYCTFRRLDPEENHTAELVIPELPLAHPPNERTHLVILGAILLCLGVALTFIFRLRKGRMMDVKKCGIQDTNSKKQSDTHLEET
measurement-kind: Kd (nM)

INSERT INTO results (compound, numeric_readout) VALUES
  ('Cc1c(COc2cc(OCc3cccc(C#N)c3)c(CN3CCN(CCOCCOCCOCC[18F])CC3)cc2Cl)cccc1-c1ccc2c(c1)OCCO2 [[^18F]LP-F]', 226);

* * *

Experiment: MTT cell viability assay, PD-L1+ cells
Assay type: cell-based
Details: human, A375-hPD-L1 cells (PD-L1-transfected human melanoma A375), LP-F 0-100 μM
Method: Human melanoma cell line A375 (PD-L1^-) and human PD-L1 gene-transfected A375 cells (A375-hPD-L1, PD-L1^+) were cultured according to previous work. Each well was seeded with 1 × 10^4 cancer cells in 96-well plates. […] The absorbance of each sample was detected at 490 nm by ELISA, and percent cell viability was calculated based on Eq.: Percentage = sample well/reference well × 100%
measurement-kind: viability at 24 h

INSERT INTO results (compound, result) VALUES
  ('Cc1c(COc2cc(OCc3cccc(C#N)c3)c(CN3CCN(CCOCCOCCOCCF)CC3)cc2Cl)cccc1-c1ccc2c(c1)OCCO2 [LP-F]', '> 90%');
